What EC50 was measured for each of the following?
Target: T1, human CD3 protein (human, UniProt P07766 23-126; P04234 22-105)
T1 construct: ELISA coating protein; also called Human CD3D & CD3E Heterodimer Protein
T1 sequence (P07766 23-126 limits assumed, chain 1 of 2): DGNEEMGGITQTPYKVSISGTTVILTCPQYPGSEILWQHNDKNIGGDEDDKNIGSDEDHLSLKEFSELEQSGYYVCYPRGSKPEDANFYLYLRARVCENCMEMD
T1 sequence (P04234 22-105 limits assumed, chain 2 of 2): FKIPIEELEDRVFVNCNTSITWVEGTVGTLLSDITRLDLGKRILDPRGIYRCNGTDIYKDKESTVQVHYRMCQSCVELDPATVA
Assay: ELISA, plate-coated CD3;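 note: binding to plate-immobilized human CD3 protein, bound antibody detected with peroxidase-labelled anti-human IgG and TMB, read as absorbance at 450 nm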
One number for each entry, in ng/mL.

Worked set:
Hu192A7B9-22 (antibody, V domains shown, humanized mAb) VH: EVQLQESGPGLVKPSETLSLTCTVSGGSISSYNVHWVRQPPGKGLEWMGRMRYNGDTSYNSALKSRLTISRDTSKNQFSLKLSSVTAADTAVYYCTRGPRGGYYSALFDYWGQGTMVTVSS VL: DIQMTQSPSSLSASVGDRVTITCKASQNINRYLNWYQQKPGKAPKVLISIANSLQTGIPSRFSGSGSGTDFTLTISSLQPEDFATYFCLQHNSWYTFGQGTKLEIK = 7.12
Hu192A7B9-16 (antibody, V domains shown, humanized mAb) VH: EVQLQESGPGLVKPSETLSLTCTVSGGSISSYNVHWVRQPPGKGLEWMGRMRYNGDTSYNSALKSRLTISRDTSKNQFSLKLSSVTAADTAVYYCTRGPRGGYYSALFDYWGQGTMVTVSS VL: DIQMTQSPSSLSASVGDRVTITCKASQNINRYLNWYQQKPGKAPKLLISIANSLQTGIPSRFSGSGSGTDFTLTISSLQPEDFATYYCLQHNSWYTFGQGTKLEIK = 7.46

Qu. Reported EC50, binder Hu153A6B1-12 (antibody, V domains shown, humanized mAb) VH: EVQLQESGPGLVKPSETLSLTCTVSGFSLTSYNIHWVRQPPGKGLEWMGRIRYNGDTSYNSALKSRLTISRDTSKNQVSLKLSSVTAADTAVYYCTRGPYGGSREPLFDYWGQGTMVTVSS VL: DIQMTQSPSSLSASVGDRVTITCKTSQNINKYLNWFQQKPGKAPKLLIYTTNNLQTGIPSRFSGSGSGTDFTLTISSLQPEDFATYYCLQHGSGYTFGQGTKLEIK : ____
Ans. 2.69
